# TARGET_SYSTEM: Voltage-gated inwardly rectifying potassium channel KCNH2 (Homo sapiens, UniProt Q12809)
# Sequence (Q12809 whole entry): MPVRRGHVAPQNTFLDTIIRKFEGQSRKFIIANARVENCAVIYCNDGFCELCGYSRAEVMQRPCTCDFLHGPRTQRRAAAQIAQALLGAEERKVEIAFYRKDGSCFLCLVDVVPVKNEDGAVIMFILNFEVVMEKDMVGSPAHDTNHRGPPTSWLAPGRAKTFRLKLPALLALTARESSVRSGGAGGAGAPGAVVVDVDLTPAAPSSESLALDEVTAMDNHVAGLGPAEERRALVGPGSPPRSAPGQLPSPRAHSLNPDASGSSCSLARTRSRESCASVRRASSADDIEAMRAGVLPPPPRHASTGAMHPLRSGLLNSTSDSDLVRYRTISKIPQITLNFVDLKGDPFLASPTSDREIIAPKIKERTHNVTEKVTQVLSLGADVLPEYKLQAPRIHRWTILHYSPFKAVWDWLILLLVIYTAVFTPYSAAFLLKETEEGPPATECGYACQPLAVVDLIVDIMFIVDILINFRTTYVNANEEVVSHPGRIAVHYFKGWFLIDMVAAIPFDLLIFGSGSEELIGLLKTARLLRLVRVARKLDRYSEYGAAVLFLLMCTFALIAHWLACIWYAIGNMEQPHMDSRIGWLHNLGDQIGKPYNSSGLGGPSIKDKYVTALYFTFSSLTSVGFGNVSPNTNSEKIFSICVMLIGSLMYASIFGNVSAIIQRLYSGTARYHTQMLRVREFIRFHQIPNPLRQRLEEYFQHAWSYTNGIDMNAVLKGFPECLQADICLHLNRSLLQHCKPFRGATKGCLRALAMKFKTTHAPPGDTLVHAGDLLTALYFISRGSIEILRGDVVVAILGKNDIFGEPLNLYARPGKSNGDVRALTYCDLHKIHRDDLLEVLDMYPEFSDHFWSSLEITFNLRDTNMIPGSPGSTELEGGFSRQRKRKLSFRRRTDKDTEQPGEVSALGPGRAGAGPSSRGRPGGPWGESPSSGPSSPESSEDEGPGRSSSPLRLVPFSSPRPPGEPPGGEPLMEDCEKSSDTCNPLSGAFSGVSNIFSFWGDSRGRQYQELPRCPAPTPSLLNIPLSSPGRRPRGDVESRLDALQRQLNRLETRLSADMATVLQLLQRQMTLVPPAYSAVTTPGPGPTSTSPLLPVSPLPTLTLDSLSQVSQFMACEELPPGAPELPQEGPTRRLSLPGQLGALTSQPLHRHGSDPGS
# TEST_SUMMARY: Inhibition of human ERG expressed in HEK293 cells by patch-clamp electrophysiology
# Format: cell-based
Can you tell me IC50 for the items I'm about to list?
Please state the value followed by its unit.

Ask: GET /values?readout=IC50&item= COc1ccc2ncc(Cl)c(CCN3CCC(NCc4cc5c(cn4)OCCO5)CC3)c2n1
Result: 2 µM

Ask: For the compound COc1ccc2ncc(F)c([C@@H](O)CN3CCC(NCc4cc5c(cn4)OCCO5)CC3)c2n1 , what IC50 is on record?
Result: 5 µM

Ask: What value of IC50 has been recorded for this entry: COc1ccc2nccc([C@@H](O)CN3CCC(NCc4cc5c(cn4)OCCO5)CC3)c2n1
Result: 4 µM

Ask: Item COc1ccc2ncc(F)c(CCN3CCC(NCc4cc5c(cn4)OCCO5)CC3)c2c1 has what recorded IC50?
Result: 6 µM

Ask: Suppose we examine the compound COc1ccc2ncc(C#N)c(CCN3CCC(NCc4cc5c(cn4)OCS5)CC3)c2c1 ; what IC50 value has been reported?
Result: 2 µM
